- experimentNotes: Inhibition of maltase in rat small intestine using maltose as substrate by Lineweaver-Burk plot based secondary replot analysis
- Type: tissue-based
Can you tell me Ki for the items I'm about to list?
Report the value in nM with no unit label.

Q: For the compound CCN(CC)[C@@H]1C[C@@H](O)[C@H](O)[C@@H](O)[C@H]1O , what Ki is on record?
Result: 3500

Q: Fill in: Ki of C[C@H]1O[C@H](O[C@H]2[C@H](O)[C@@H](O)[C@@H](O[C@H]3[C@H](O)[C@@H](O)C(O)O[C@@H]3CO)O[C@@H]2CO)[C@H](O)[C@@H](O)[C@@H]1N[C@H]1C=C(CO)[C@@H](O)[C@H](O)[C@H]1O (some centres undefined) [ACARBOSE] is ___
Result: 990

Q: Please look up its Ki: CCCCCCN[C@@H]1C[C@@H](O)[C@H](O)[C@@H](O)[C@H]1O
Result: 730

Q: Given the compound CCCCCCCCCC(=O)N[C@H]1C[C@@H](O)[C@H](O)[C@@H](O)[C@H]1O , what is its reported Ki?
Result: 1500
